- measurement_target: HLA-A*24 (human)
- experiment_description: UV peptide exchange, anti-b2m ELISA
List of peptide exchange yield values.
metric: peptide exchange yield

- binder: "TYSVSFPMF [SEQ ID No 195 peptide …]"
  metric: "peptide exchange yield"
  result: "> 75%"
- binder: "IYLVSIPEL [SEQ ID No 161 peptide …]"
  metric: "peptide exchange yield"
  result: "> 75%"
- binder: "KYQDILETI [SEQ ID No 168 peptide …]"
  metric: "peptide exchange yield"
  result: "> 75%"
- binder: "RYFKGLVF [SEQ ID No 188 peptide RYFKGLVF]"
  metric: "peptide exchange yield"
  result: "50 to 75%"
